Hello, the source for this data is ChEMBL document CHEMBL1129078, in case you need it.

Target: Muscarinic acetylcholine receptor
Test: Receptor binding affinity against Muscarinic acetylcholine receptor from guinea pig heart was determined using [3H]- QNB as radioligand
Assay type: protein assay, Cavia porcellus
endpoint: Ki (nM)
Number in nM, nothing else.

Asked: Request body: readout Ki, system Muscarinic acetylcholine receptor, query O=[N+]([O-])c1ccc2oc(C3=CN4CCC3CC4)cc2c1 . Return the value.
Given back: 460

Asked: Now try OCc1cc(I)c2oc(C3=CN4CCC3CC4)cc2c1 .
Given back: 462

###

Target: Muscarinic acetylcholine receptor
Assay: Receptor binding affinity against Muscarinic acetylcholine receptor from guinea pig urinary bladder was determined using [3H]- QNB as radioligand
Assay type: protein assay, Cavia porcellus
Please respond with Yes when measured Ki is strictly beneath 2000 nM, and with No in all other cases.

Solved entries:
- OCc1cc(I)c2oc(C3=CN4CCC3CC4)cc2c1: Yes
- COc1cc(CO)cc2cc(C3=CN4CCC3CC4)oc12: No

Asked: Determine whether this compound shows Ki lower than 2000 nM (ties excluded): OCc1ccc2oc(C3=CN4CCC3CC4)cc2c1
Given back: No

Asked: Now try C1=C(c2cc3ncccc3o2)C2CCN1CC2 .
Given back: Yes

Asked: Now try Fc1ccc2oc(C3=CN4CCC3CC4)cc2c1 .
Given back: Yes

Asked: Now try OCc1cc(I)cc2cc(C3=CN4CCC3CC4)oc12 .
Given back: No

Asked: Now try O=[N+]([O-])c1cc(I)c2oc(C3=CN4CCC3CC4)cc2c1 .
Given back: Yes

###

// values below are reported log10(Ki)
Biological target: Muscarinic acetylcholine receptor
Assay: Receptor binding affinity (Ki) for Muscarinic acetylcholine receptor (urinary bladder) was determined by competition radioligand -[3H]- QNB binding assay
Type: protein assay, Cavia porcellus
Units before log transform: nM; reported quantity: Ki; transform: log10.

* O=Cc1cc(I)c2oc(C3=CN4CCC3CC4)cc2c1 | 3.00
* O=Cc1ccc2oc(C3=CN4CCC3CC4)cc2c1 | 3.11
* Brc1c(C2=CN3CCC2CC3)oc2ccccc12 | 2.06
* Cc1ccc2oc(C3=CN4CCC3CC4)cc2c1 | 2.56
* COc1cc(C=O)cc2cc(C3=CN4CCC3CC4)oc12 | 3.59

Now look at this entry.
Asked: GET /values?readout=log10(Ki)&item= C1=C(c2oc3ccccc3c2-c2ccccc2)C2CCN1CC2
Given back: 2.03

###

Molecular target: Muscarinic acetylcholine receptor
Test: Receptor binding affinity against Muscarinic acetylcholine receptor from guinea pig parotid gland was determined using [3H]- QNB as radioligand
Assay type: protein assay, Cavia porcellus
Please respond with 1.0 when measured Ki is strictly beneath 500 nM, and with 0.0 in all other cases.

Asked: Determine whether this compound shows Ki lower than 500 nM (ties excluded): C1=C(c2cc3ncccc3o2)C2CCN1CC2
Given back: 1.0

Asked: Now try OCc1cccc2cc(C3=CN4CCC3CC4)oc12 .
Given back: 0.0

Asked: Now try Nc1ccc2oc(C3=CN4CCC3CC4)cc2c1 .
Given back: 0.0

Asked: Now try OCc1cc(I)c2oc(C3=CN4CCC3CC4)cc2c1 .
Given back: 0.0

Asked: Now try O=[N+]([O-])c1cc(I)c2oc(C3=CN4CCC3CC4)cc2c1 .
Given back: 0.0

Asked: Now try Fc1ccc2oc(C3=CN4CCC3CC4)cc2c1 .
Given back: 1.0
